Target: T1, C-terminally FLAG-tagged human Gas6 recombinant protein (hGas6-F) (human, UniProt Q14393 31-678, gamma-carboxylated glutamic acid residues in the Gla domain (producer cells co-express rat VKOR and human GGCX); positions not given)
T1 construct: also called human Gas6-F; human Gas6 protein
T1 sequence: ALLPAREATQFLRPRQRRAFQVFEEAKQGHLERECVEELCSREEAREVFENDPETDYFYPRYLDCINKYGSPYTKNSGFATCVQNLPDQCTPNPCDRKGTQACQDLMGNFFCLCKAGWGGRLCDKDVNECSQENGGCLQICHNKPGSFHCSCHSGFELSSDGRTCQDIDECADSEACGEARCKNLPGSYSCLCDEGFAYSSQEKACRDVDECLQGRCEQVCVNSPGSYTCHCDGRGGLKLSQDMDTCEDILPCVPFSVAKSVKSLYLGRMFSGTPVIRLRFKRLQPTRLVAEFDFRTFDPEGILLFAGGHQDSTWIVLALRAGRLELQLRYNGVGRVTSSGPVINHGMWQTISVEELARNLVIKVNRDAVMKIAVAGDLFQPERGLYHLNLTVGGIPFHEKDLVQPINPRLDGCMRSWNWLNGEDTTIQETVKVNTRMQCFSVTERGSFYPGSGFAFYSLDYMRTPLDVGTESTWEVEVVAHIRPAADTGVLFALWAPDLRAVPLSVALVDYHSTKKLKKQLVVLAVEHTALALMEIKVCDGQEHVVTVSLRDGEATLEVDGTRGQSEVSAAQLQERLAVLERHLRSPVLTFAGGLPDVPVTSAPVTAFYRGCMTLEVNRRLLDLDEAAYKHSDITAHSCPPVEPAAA
Assay: SPR Biacore T100, captured antibody, Gas6 analyte, first test
measured endpoint: Kd

binder: hzKM5320 LV5HV0 antibody (antibody, V domains shown, Humanized; variant human IgG4 constant region (EU S228P, L235E, R409K), human kappa; also called A-08) VH: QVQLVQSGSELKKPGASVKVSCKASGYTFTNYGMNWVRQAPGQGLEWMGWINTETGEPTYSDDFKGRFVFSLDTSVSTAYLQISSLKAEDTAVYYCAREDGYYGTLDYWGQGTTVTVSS VL: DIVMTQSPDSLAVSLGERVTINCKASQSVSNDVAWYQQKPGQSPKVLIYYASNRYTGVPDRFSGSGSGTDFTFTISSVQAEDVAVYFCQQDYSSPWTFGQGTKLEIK
measured endpoint: Kd
recorded value: < 2.85 nM

binder: hzKM5320 LV5HV3c antibody (antibody, V domains shown, Humanized; variant human IgG4 constant region (EU S228P, L235E, R409K), human kappa; also called A-23) VH: QVQLVQSGPELKKPGASVKVSCKASGYTFTNYGMNWVKQAPGQGLKWMGWINTETGEPTYSDDFKGRFVFSLDTSVSTAYLQISSLKAEDTAVYYCAREDGYYGTLDYWGQGTTVTVSS VL: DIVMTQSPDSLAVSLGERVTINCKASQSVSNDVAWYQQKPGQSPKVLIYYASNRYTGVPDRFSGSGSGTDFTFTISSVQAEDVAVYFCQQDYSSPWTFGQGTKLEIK
measured endpoint: Kd
recorded value: < 1.79 nM

binder: hzKM5321 LV7aHV7 antibody (antibody, V domains shown, Humanized; variant human IgG4 constant region (EU S228P, L235E, R409K), human kappa; also called B-19; LV7aHV7) VH: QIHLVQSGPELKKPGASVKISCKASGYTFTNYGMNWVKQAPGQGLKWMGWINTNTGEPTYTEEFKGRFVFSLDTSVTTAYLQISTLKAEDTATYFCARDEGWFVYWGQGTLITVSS VL: ETTLTQSPSSLSVSTGDRVTITCITSTDIDDDMNWYQQKPGKPPKLLISEGNTLRPGVPSRFSSSGSGTDFTFTISSTQPEDFADYYCLQTDSVPLTFGQGTKVEIK
measured endpoint: Kd
recorded value: < 2.91 nM

binder: hzKM5320 LV1bHV0 antibody (antibody, V domains shown, Humanized; variant human IgG4 constant region (EU S228P, L235E, R409K), human kappa; also called A-04) VH: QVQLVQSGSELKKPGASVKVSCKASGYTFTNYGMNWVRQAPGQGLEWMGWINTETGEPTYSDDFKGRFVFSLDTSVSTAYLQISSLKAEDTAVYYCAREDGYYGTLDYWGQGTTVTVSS VL: DVVMTQSPDSLAVSLGERVTINCKASQSVSNDVAWYQQKPGQSPKLLIYYASNRYTGVPDRFSGSGSGTDFTLTISSVQAEDVAVYYCQQDYSSPWTFGQGTKLEIK
measured endpoint: Kd
recorded value: < 16 nM

binder: hzKM5321 LV9HV7 antibody (antibody, V domains shown, Humanized; variant human IgG4 constant region (EU S228P, L235E, R409K), human kappa; also called B-21; LV9HV7) VH: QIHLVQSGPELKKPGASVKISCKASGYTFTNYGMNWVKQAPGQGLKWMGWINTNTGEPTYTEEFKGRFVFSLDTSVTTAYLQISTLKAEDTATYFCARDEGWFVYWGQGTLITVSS VL: ETTVTQSPSSLSVSTGDRVTITCITSTDIDDDMNWYQQKPGKPPKLLISEGNTLRPGVPSRFSSSGSGTDFTFTISSTQPEDFADYYCLQTDSVPLTFGQGTKLEIK
measured endpoint: Kd
recorded value: < 3.33 nM
